- TGT: E. coli topoisomerase I (Escherichia coli (strain K12), UniProt P06612)
- Sequence (P06612 whole entry, looked up): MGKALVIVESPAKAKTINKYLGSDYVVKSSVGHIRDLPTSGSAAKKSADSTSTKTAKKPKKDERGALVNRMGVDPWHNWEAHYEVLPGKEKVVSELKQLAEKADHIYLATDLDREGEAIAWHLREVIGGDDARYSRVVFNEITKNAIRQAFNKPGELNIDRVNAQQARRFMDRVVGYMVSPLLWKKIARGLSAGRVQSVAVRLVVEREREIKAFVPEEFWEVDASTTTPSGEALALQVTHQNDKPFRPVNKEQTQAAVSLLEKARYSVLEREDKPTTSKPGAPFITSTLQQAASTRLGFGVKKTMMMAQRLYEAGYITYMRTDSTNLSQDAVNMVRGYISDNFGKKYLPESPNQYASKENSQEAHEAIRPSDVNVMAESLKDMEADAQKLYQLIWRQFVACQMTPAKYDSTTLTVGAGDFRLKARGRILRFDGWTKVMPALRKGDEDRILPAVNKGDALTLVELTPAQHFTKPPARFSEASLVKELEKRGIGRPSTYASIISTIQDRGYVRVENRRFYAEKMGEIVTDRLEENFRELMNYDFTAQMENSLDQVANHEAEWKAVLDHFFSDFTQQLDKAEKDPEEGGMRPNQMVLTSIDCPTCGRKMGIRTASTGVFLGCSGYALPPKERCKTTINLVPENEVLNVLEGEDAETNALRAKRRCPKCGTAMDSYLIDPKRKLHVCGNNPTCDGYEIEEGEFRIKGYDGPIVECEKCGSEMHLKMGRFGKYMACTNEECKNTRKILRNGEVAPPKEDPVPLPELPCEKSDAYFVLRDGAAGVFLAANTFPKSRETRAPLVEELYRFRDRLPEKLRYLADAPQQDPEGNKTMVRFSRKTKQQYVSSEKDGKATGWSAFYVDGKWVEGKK
- PROTOCOL DESCRIPTION: biochemical
- Format: biochemical
- CONDITION SUMMARY: experimental, converted from IC50
PROPERTY MEASURED: PIC50 (pIC50 = −log IC50)

[[record]]
molecule = "N#Cc1ccc2c(c1)Oc1c(F)c(F)cc3c(=O)c(C(=O)O)cn-2c13 [Compound 7b]"
experimental_value = 4.51

[[record]]
molecule = "Nc1ccc2c(c1)Oc1c(N3CC[C@H](N)C3)c(F)cc3c(=O)c(C(=O)O)cn-2c13 [Compound 17a]"
experimental_value = 6.14

[[record]]
molecule = "Nc1ccc2c(c1)Oc1c(NC3CCCC3)c(F)cc3c(=O)c(C(=O)O)cn-2c13 [Compound 11j]"
experimental_value = 5.41

[[record]]
molecule = "CN1CCN(c2c(F)cc3c(=O)c(C(=O)O)cn4c3c2Oc2cc(N)ccc2-4)CC1 [Compound 11a]"
experimental_value = 6.32

[[record]]
molecule = "CC(=O)c1ccc2c(c1)Oc1c(F)c(F)cc3c(=O)c(C(=O)O)cn-2c13 [Compound 7d]"
experimental_value = 4.81

[[record]]
molecule = "Nc1ccc2c(c1)Oc1c(F)c(F)cc3c(=O)c(C(=O)O)cn-2c13 [Compound 1]"
experimental_value = 5.71

[[record]]
molecule = "Nc1ccc2c(c1)Oc1c(NC34CC5CC(CC(C5)C3)C4)c(F)cc3c(=O)c(C(=O)O)cn-2c13 [Compound 11f]"
experimental_value = 5.23

[[record]]
molecule = "CC1CCN(c2c(F)cc3c(=O)c(C(=O)O)cn4c3c2Oc2cc(N)ccc2-4)CC1 [Compound 11c]"
experimental_value = 5.41


---

- TGT: E. coli topoisomerase I (Escherichia coli (strain K12))
- PROTOCOL DESCRIPTION: biochemical
- Type: biochemical
- CONDITION SUMMARY: experimental, converted from IC50
Hi! Could you tag entries with PIC50 (pIC50 = −log IC50) below 5 as TRUE, and those at or above as FALSE? Much appreciated.

[[record]]
molecule = "N[C@H]1CCN(c2c(F)cc3c(=O)c(C(=O)O)cn4c3c2Oc2cc([N+](=O)[O-])ccc2-4)C1"
classification = "FALSE"

[[record]]
molecule = "CCCCCCNc1c(F)cc2c(=O)c(C(=O)O)cn3c2c1Oc1cc(N)ccc1-3 [Compound 11k]"
classification = "TRUE"

[[record]]
molecule = "O=C(O)c1cn2c3c(c(N4CCNCC4)c(F)cc3c1=O)Oc1cc([N+](=O)[O-])ccc1-2 [Compound 10b]"
classification = "FALSE"

[[record]]
molecule = "Nc1ccc2c(c1)Oc1c(N3CC[C@@H](N)C3)c(F)cc3c(=O)c(C(=O)O)cn-2c13 [Compound 17b]"
classification = "FALSE"

[[record]]
molecule = "CN1CCN(c2c(F)cc3c(=O)c(C(=O)O)cn4c3c2Oc2cc([N+](=O)[O-])ccc2-4)CC1 [Compound 10a]"
classification = "FALSE"

[[record]]
molecule = "CCOC(=O)c1cn2c3c(c(F)c(F)cc3c1=O)Oc1cc(C#N)ccc1-2"
classification = "TRUE"

[[record]]
molecule = "Nc1ccc2c(c1)Oc1c(NC3CCCCC3)c(F)cc3c(=O)c(C(=O)O)cn-2c13 [Compound 11i]"
classification = "FALSE"

[[record]]
molecule = "O=C(O)c1cn2c3c(c(F)c(F)cc3c1=O)Oc1cc([N+](=O)[O-])c(Cl)cc1-2"
classification = "TRUE"

[[record]]
molecule = "O=C(O)c1cn2c3c(c(F)c(F)cc3c1=O)Oc1cc([N+](=O)[O-])ccc1-2"
classification = "TRUE"

